Provenance of the data: PubChem BioAssay (NCI)

Some compounds, each annotated with its measured TGI.
- Tested on: IGROV1 ovarian
- experiment notes: NCI tumour cell line growth inhibition, 48 h

Here is how some compounds turned out for TGI.
| chemical string | assayed system | TGI |
| --- | --- | --- |
| Cc1cccc(Nc2nc(NNC(=O)Cc3ccccc3)nc(NNC(=O)c3ccncc3)n2)c1 | IGROV1 ovarian | > 10 µM |
| Cc1ccc(Cc2nn(C)c(=O)n2-n2cccc2)cc1 | IGROV1 ovarian | > 100 µM |
| Cc1cccc2c(N)c3cccc(C(=O)NCCN4CCOCC4)c3nc12 | IGROV1 ovarian | 3.4 µM |
| Cc1n(-c2ccccc2)c2c([n+]1Cc1ccc([N+](=O)[O-])cc1)C(=O)c1ccccc1C2=O | IGROV1 ovarian | 2.23 µM |

Now look at this entry.
Form: compound = `CCN(CC)c1nc(=O)c(C(=O)C(C)(C)C)c(C(C)(C)C)o1` ; TGI = > 100 µM

###

Below is a list of entries, each paired with its recorded TGI value.
- Test system: KM12 colon
- experiment notes: NCI tumour cell line growth inhibition, 48 h

Below are worked cases with known answers.
| molecule | assayed system | TGI |
| --- | --- | --- |
| COc1cc2c(cc1OC)C1(c3ccccc3)ON=C(c3ccccc3)N1CS2 (stereo not drawn) | KM12 colon | > 100 µM |
| COc1ccc(/C(Cl)=C(\CNc2ccccn2)c2ccccc2)cc1OC | KM12 colon | > 100 µM |

Moving on to the next molecule.
Note to self: TGI recorded for `O=C1Cc2c(-c3ccccc3)cc(-c3ccc4ccccc4c3)nc2-c2ccccc2N1` was 28.3 µM

###

Reported values of TGI for individual entries
- Test system: HOP-62 NSCLC
- experiment notes: NCI tumour cell line growth inhibition, 48 h

Worked set:
| molecule | result |
| --- | --- |
| O=C(NCc1cccs1)OC1CC2CCC1C2 (stereo not drawn) | > 100 µM |
| Cc1cc(=O)[nH]c(NN2C(Cl)C(=O)C2c2c(O)ccc3ccccc23)n1 (stereo not drawn) | 77 µM |
| CCC(C)C(NC(=O)c1c2ccccc2nc2ccccc12)C(=O)O (stereo not drawn) | > 100 µM |
| COc1ccc(CCN2COc3ccc4ccc(=O)oc4c3C2)cc1OC | > 100 µM |
| CCCCC/C=C\C/C=C/CCCCCCCCNC(=O)Nc1ccc([N+](=O)[O-])cc1 | > 100 µM |
| CC1C(=O)CC[C@@]2(C)C(=O)CCCC12O (stereo partly drawn) | > 100 µM |

Briefly, TGI measured for `CCCCCCCCCCCCCCC[C@@H](O)C[N+](C)(C)CCO` : > 100 µM

Entry under test: O=C(Oc1ccc(OC(Oc2ccccc2)c2ccccc2)cc1)c1ccccc1 (stereo not drawn) . Its TGI was 19 µM

###

- System: IGROV1 ovarian
- experiment notes: NCI tumour cell line growth inhibition, 48 h
measured attribute: TGI

Examples from the recorded data:
| compound | assayed system | TGI |
| --- | --- | --- |
| Cc1ccc(C2SC(N)=Nc3c2c(C)nn3C(=O)c2ccc(Cl)cc2)cc1 (stereo not drawn) | IGROV1 ovarian | > 10 µM |
| Cc1[nH]c2ccccc2c1C1=CC(=O)C=CC1=O | IGROV1 ovarian | 27.2 µM |
| Cc1ccc(C(O)/C(=N/N)c2nc3ccc([N+](=O)[O-])cc3[nH]c2=O)cc1 (stereo not drawn) | IGROV1 ovarian | > 100 µM |
| CC1C(=O)CC[C@@]2(C)C(=O)CCCC12O (stereo partly drawn) | IGROV1 ovarian | > 100 µM |
| COc1cc2c(cc1OC)CN1CCc3ccccc3CC1C2 (stereo not drawn) | IGROV1 ovarian | > 100 µM |
| N#C/C(=C\c1ccc([N+](=O)[O-])s1)c1nc2cc(Br)ccc2s1 | IGROV1 ovarian | 1.14 µM |

TGI on IGROV1 ovarian for `O=C1C=C(NCCc2cc(Cl)c(O)c(Cl)c2)C(=O)c2[nH]cnc21` is 38.8 µM

Noted TGI for `Cc1ccc(Nc2cc(=O)[nH]c(=O)[nH]2)cc1CS` , tested on IGROV1 ovarian: > 100 µM

###

- Test system: UACC-62 melanoma
- experiment notes: NCI tumour cell line growth inhibition, 48 h
measured attribute: TGI

Recorded TGI, per entry:
| compound | result |
| --- | --- |
| CNc1ccc(C(=O)CC(O)CCC(C)C2OC(=O)CC(O)CC(=O)CC(O)CC(O)CC(O)CC(O)CC3(O)CC(O)C(C(=O)NCCc4ccccn4)C(CC(OC4OC(C)C(O)C(N)C4O)/C=C/C=C/C=C/C=C\C=C/C=C/C=C/C2C)O3)cc1 (centres undefined) | > 34.2 µM |
| O=C(O)c1nc2cc(C(F)(F)F)ccc2[nH]c1=O | > 100 µM |
| COc1cc(S(=O)(=O)Nc2ccc(-c3csc(/N=C\C=C\c4ccccc4)n3)cc2)ccc1Cl | > 100 µM |

# evaluate next
Reported TGI ( `CCOP(=O)(OCC)/C(C#N)=C/c1cc(O)ccc1O` ) = > 100 µM

###

- Test system: NCI-H226 lung
- experiment notes: NCI tumour cell line growth inhibition, 48 h
Listed here are compounds together with their documented TGI.

| compound | result |
| --- | --- |
| COc1ccc(N2C(=O)C3c4[nH]c5cc(Cl)ccc5c4C4CCC(C(C)(C)C)CC4C3C2=O)cc1 (stereo not drawn) | > 100 µM |
| O=C(NCCCCCCNC(=O)NC1OCC(O)C(O)C1O)NC1OCC(O)C(O)C1O (stereo not drawn) | > 100 µM |
| CC1OC(n2cc(I)c(=O)[nH]c2=O)C=CC1=O (stereo not drawn) | 32.3 µM |

Measured TGI, `COc1cc(/C=C2/C(=O)N=C(NC(C)=O)N2C)ccc1OC(C)=O` : > 100 µM

TGI reported for this compound O=c1[nH]c(=O)n(C2OC(CO)C(O)C2O)cc1OCc1ccccc1 (stereo not drawn) : > 100 µM

According to the records, this compound `Cc1ccc(C(=O)c2[nH]c(Nc3ccc(Cl)cc3)c(C(=S)Nc3ccccc3)c2N)cc1` displays TGI of 43.4 µM

###

Each entry below carries its recorded TGI.
- Tested on: BT-549 breast
- experiment notes: NCI tumour cell line growth inhibition, 48 h

Consider the worked cases shown below.
| molecule | assayed system | result |
| --- | --- | --- |
| COC(=O)c1cn(CCCCO)nn1 | BT-549 breast | > 100 µM |
| COc1ccc(CCN2COc3ccc4ccc(=O)oc4c3C2)cc1OC | BT-549 breast | > 100 µM |
| COc1cc(S(=O)(=O)Nc2ccc(-c3csc(/N=C\C=C\c4ccccc4)n3)cc2)ccc1Cl | BT-549 breast | > 100 µM |

Form field, TGI with BT-549 breast, item `O=C1Cc2c(-c3ccccc3)cc(-c3ccc4ccccc4c3)nc2-c2ccccc2N1` : > 100 µM

###

TGI: recorded values
- Test system: CCRF-CEM leukemia
- experiment notes: NCI tumour cell line growth inhibition, 48 h

| compound | measured attribute | result |
| --- | --- | --- |
| COc1ccc(C(=O)c2cc(OC)c(OC)c(OC)c2)cc1/C=C/C(=O)c1ccc2c(c1)OCO2 | TGI | > 100 µM |
| N#CC1C(=O)NC2=C(CCOc3c2ccc2ccccc32)C1c1ccc(F)cc1 (centres undefined) | TGI | > 100 µM |
| CCNC(=O)c1ccc2c(c1)nc(-c1ccc(Cl)cc1)n2-c1cc(C(C)(C)C)[nH]n1 | TGI | 40.7 µM |

Form: compound = `Clc1ccc2c(Cl)nc(-c3ccccc3)nc2c1` ; TGI = > 100 µM

Query `Cc1n(CC(C)C)c2c([n+]1CC(=O)c1ccc([N+](=O)[O-])cc1)C(=O)c1ccccc1C2=O` yields TGI of 4.94 µM

Recorded result, `CN(C)c1ccc(/C=C2\N=C(c3ccccc3)N(/N=C3\C(=O)Nc4ccccc43)C2=O)cc1` , TGI: > 100 µM

Lab book: TGI of `CCOc1ccc(N=Nc2c(-c3ccccc3)nn(C(=O)CC(=O)Nc3cccc(C)c3)c2-c2ccccc2)cc1` noted as > 100 µM

Measured TGI, `COC(=O)c1cc(NC(=O)CN(CCN(CC(=O)O)CC(=O)Nc2ccc(O)c(C(=O)OC)c2)CC(=O)O)ccc1O` : > 100 µM

For record `CC#CC(=O)N[C@H]1CCCN(c2c(F)cc(C(N)=O)c3[nH]c(C)c(C)c23)C1` the listed TGI is 85 µM

###

- System: NCI-H226 lung
- experiment notes: NCI tumour cell line growth inhibition, 48 h
Listed compounds paired with reported TGI

| compound | assayed system | TGI |
| --- | --- | --- |
| Cc1cc(S(=O)(=O)Nc2nc(N)nc(N(C)C)n2)c(SC(C(=O)O)c2ccccc2)cc1Cl (configuration not stated) | NCI-H226 lung | > 10 µM |
| O=C(NCc1cccs1)OC1CC2CCC1C2 (configuration not stated) | NCI-H226 lung | > 100 µM |
| CCN(CC)CCNc1ccc2ncn3c4c(OC)ccc(=O)c4c(O)c1c23 | NCI-H226 lung | > 100 µM |
| O=C(Oc1ccc(OC(Oc2ccccc2)c2ccccc2)cc1)c1ccccc1 (configuration not stated) | NCI-H226 lung | > 31.6 µM |
| O=C1c2ccccc2-n2c1nc1cc(Cl)ccc1c2=O | NCI-H226 lung | > 100 µM |

NCI-H226 lung assay, compound `Cc1nn(-c2ccccc2)c(C)c1/C=N/N1CCN(Cc2ccccc2)CC1` , recorded TGI = 96.2 µM

Lab note: compound `O=[N+]([O-])c1ccc(NN=C2c3ccccc3Cc3ccccc32)c([N+](=O)[O-])c1` tested on NCI-H226 lung; recorded TGI was > 100 µM

I looked up C/C=C(\C)C(=O)OC1C2C(C)C(=O)OC2C(O)C(C)C2C=CC(=O)C21C (configuration not stated) and its TGI for NCI-H226 lung was 46.5 µM

// TGI (NCI-H226 lung) for `CCOC(=O)/C(=C/c1ccc(Cl)cc1)N(CC)CC` = > 100 µM

Record for `CC(=O)O[C@H]1CC[C@@]2(C)C(=CC[C@H]3[C@@H]4C/C(=C\c5ccncc5)[C@H](OC(C)=O)[C@@]4(C)CC[C@@H]32)C1` under target or system NCI-H226 lung: TGI reported as 34.6 µM

For `N#Cc1nc(NC(=O)c2ccccc2)sc1N` on NCI-H226 lung, measured TGI was > 10 µM

Given the compound Oc1c2c(c3c4c1N=CC=4CCN=3)C1(C=C(Br)C(O)C(Br)=C1)CCN2 (configuration not stated) and test system NCI-H226 lung, the measured TGI is 9 µM

# TGI measured on NCI-H226 lung for item Nc1ncnc2c1c(C(=O)NO)cn2C1OC(CO)C(O)C1O (configuration not stated) = 5.51 µM

Tested on NCI-H226 lung, the item O=C1C(Cl)C(c2cccc(Br)c2)N1c1c(O)c(Cl)cc(Br)c1Cl (configuration not stated) showed TGI equal to 51.8 µM

Form field, TGI with NCI-H226 lung, item Cc1ccc(C(CC(=O)c2ccccc2)C(C(=O)c2ccccc2)C(c2ccc(C)cc2)C2C(=O)NC(=S)NC2=O)cc1 (configuration not stated) : > 50 µM

Measured TGI (NCI-H226 lung), entry COc1cc2c(cc1OC)CN1CCc3ccccc3CC1C2 (configuration not stated) : > 100 µM

Sample O=C1C2C3CCC(C2C(=O)N1CO)C1C2C(=O)N(CO)C(=O)C2C31 (configuration not stated) , system: NCI-H226 lung. Its TGI is > 100 µM
